The entries that follow carry pIC50 values tested on HPK1 (Homo sapiens (Human), UniProt Q92918), drawn from several published reports.
pIC50: −log10 of the molar value.

compound=Cc1cc(-c2cnc3[nH]cc(-c4ccc(C(=O)N(C)C[C@H](C)O)cc4)c3n2)cc2c1CCN(C)C2 testtarget="HPK1 (Homo sapiens (Human), UniProt Q92918)" assayvalue=7.68
compound=N[C@@H]1CCN(c2c(NC(=O)c3ccc(=O)n(-c4c(F)cccc4F)n3)ccc3nn(CC4CC4)cc23)C1 testtarget="HPK1 (Homo sapiens (Human), UniProt Q92918)" assayvalue="> 7.00"
compound=Cc1c(-c2cc3nc(Nc4ccc5c(c4)C(C)(C)OC5=O)ncc3c(N)c2F)cnc2c1NCCO2 testtarget="HPK1 (Homo sapiens (Human), UniProt Q92918)" assayvalue=10.12
compound=O=C(Nc1ccc(-c2cc(Nc3ccc(N4CC(F)(F)C4)cn3)c3c(=O)[nH]ccc3n2)c(F)c1)C1CCCCC1 testtarget="HPK1 (Homo sapiens (Human), UniProt Q92918)" assayvalue="≥ 7.00"
compound=O=C1NCc2c(-c3cccn4nccc34)ncc(Nc3ccc(N4CCC(O)CC4)cn3)c21 testtarget="HPK1 (Homo sapiens (Human), UniProt Q92918)" assayvalue="6.00 to 7.00"
compound=Cn1ccc2c(-c3ccc(Nc4ccc(C5(C)CCNCC5)cn4)c4c3CNC4=O)ccnc21 testtarget="HPK1 (Homo sapiens (Human), UniProt Q92918)" assayvalue="> 7.00"
compound=Cc1c(-c2cc3nc(Nc4cccc(S(=O)(=O)NC(C)(C)C)c4)ncc3c(N)c2F)cnc2c1NCCO2 testtarget="HPK1 (Homo sapiens (Human), UniProt Q92918)" assayvalue=9.73
compound=COc1cc2c(cc1Nc1ncc3ccc(NCc4noc(C)n4)cc3n1)CN(C)CC2 testtarget="HPK1 (Homo sapiens (Human), UniProt Q92918)" assayvalue=7.01
compound=CN1CCN(c2ccc(Nc3ccc(-c4ccnc(N5CCOCC5)n4)c4c3C(=O)NC4)nc2)CC1 testtarget="HPK1 (Homo sapiens (Human), UniProt Q92918)" assayvalue="5.30 to 6.00"
compound=CNc1ncc2c(n1)N1CCN=C1C(c1cc(NC(=O)c3cccc(C(C)(C)C#N)c3)ccc1C)=C2 testtarget="HPK1 (Homo sapiens (Human), UniProt Q92918)" assayvalue="> 7.00"

HPK1 (Homo sapiens (Human), UniProt Q92918) assay, compound CC(=O)N1CCC(n2ccc(N/C(C)=C3\C(=O)Nc4cnc(-c5cnccc5C)cc43)n2)CC1 , recorded pIC50 = > 7.30

HPK1 (Homo sapiens (Human), UniProt Q92918) assay, compound CN1CCOc2c(-c3ccc(Nc4ccc(N5CCNCC5)cn4)c4c3CNC4=O)ccnc21 , recorded pIC50 = > 7.00

HPK1 (Homo sapiens (Human), UniProt Q92918) assay, compound Cc1cc(F)c(NC(=O)c2cccc(C(F)(F)F)n2)cc1C1=Cc2cnc(NC3COC3)nc2N2CCN=C12 , recorded pIC50 = 5.00 to 7.00

HPK1 (Homo sapiens (Human), UniProt Q92918) assay, compound CC(C)n1cc2c(N3CCC[C@@H](N)C3)c(NC(=O)c3ccc(=O)n(-c4c(F)cccc4F)n3)ccc2n1 , recorded pIC50 = > 7.00

HPK1 (Homo sapiens (Human), UniProt Q92918) assay, compound COc1ccc2c(-c3ccc(Nc4ccc(N5CCN(C)CC5)cn4)c4c3CNC4=O)c[nH]c2c1 , recorded pIC50 = > 7.00

HPK1 (Homo sapiens (Human), UniProt Q92918) assay, compound CN1CCN(c2ccc(Nc3ccc(-c4cc(N5CC6CCC(C5)O6)ncn4)c4c3C(=O)NC4)nc2)CC1 , recorded pIC50 = 5.30 to 6.00

HPK1 (Homo sapiens (Human), UniProt Q92918) assay, compound CNc1ncc2c(n1)N1CCN=C1C(c1cc(NC(=O)c3cc(C(F)(F)F)ccn3)cnc1C)=C2 , recorded pIC50 = 5.00 to 7.00

HPK1 (Homo sapiens (Human), UniProt Q92918) assay, compound Cc1ccn2c(-c3ncc(Nc4cccc(N5CCC6CNCC65)n4)c4c3CNC4=O)cnc2c1F (centres unmarked) , recorded pIC50 = > 7.00

HPK1 (Homo sapiens (Human), UniProt Q92918) assay, compound CC(C)c1nc2c(N3CC[C@@H](N)C3)c(NC(=O)c3ccnn(-c4c(F)cccc4F)c3=O)ccc2n1C , recorded pIC50 = > 7.00

HPK1 (Homo sapiens (Human), UniProt Q92918) assay, compound Cc1c(-c2cc3nc(Nc4ccc(CC(C)(C)O)cc4)ncc3c(N)c2F)cnc2c1NCCO2 , recorded pIC50 = 10.03
